- experimental system: T1, rat cMET (rat, UniProt P97523 25-935, limits assumed)
- T1 construct: ELISA antigen; also called rMET
- T1 sequence (P97523 25-935 limits assumed): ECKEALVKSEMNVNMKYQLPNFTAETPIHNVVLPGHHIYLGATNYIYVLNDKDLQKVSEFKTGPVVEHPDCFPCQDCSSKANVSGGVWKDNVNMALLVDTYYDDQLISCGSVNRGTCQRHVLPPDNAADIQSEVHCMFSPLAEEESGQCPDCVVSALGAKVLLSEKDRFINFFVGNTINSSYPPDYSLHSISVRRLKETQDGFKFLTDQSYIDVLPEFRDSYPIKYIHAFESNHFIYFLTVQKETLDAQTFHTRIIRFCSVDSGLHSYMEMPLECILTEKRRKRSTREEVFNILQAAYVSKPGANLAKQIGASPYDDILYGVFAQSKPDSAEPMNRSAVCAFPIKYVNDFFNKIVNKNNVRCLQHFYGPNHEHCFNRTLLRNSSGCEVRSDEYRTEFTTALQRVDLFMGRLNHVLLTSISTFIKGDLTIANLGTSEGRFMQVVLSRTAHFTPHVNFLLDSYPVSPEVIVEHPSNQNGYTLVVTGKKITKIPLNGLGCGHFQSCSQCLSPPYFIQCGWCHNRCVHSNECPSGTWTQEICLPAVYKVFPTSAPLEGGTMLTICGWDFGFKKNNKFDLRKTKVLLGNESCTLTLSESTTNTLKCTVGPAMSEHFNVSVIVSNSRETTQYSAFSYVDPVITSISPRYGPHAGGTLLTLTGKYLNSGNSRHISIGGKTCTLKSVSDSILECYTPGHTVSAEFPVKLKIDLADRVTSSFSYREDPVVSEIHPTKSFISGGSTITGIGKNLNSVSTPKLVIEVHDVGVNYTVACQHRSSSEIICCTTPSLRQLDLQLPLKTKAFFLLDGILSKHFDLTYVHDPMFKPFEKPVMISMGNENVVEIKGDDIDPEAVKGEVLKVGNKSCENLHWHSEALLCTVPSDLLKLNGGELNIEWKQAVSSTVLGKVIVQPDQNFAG
- method notes: ELISA on rat cMET, ratio to parental P3D12

{"binder": "G2vkc (antibody, V domains shown, As G2aka; also called humanized P3D12, HC VH-ven, LC cdr) VH: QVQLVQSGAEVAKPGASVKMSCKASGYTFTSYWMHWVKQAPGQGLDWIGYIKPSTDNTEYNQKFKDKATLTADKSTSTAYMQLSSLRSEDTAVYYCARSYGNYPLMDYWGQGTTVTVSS VL: QIVLTQSPATLSLSPGERATLSCSASSSVTSNYLYWYQQKPGSSPRLLIYSTSNLASGVPARFSGSGSGTSYTLTISRLEPEDFASYFCHQWSSYPPTFGSGTKLEIKR", "ELISA rMET vs parental": 1.9}
{"binder": "G2akc (antibody, V domains shown, As G2aka; also called humanized P3D12, HC VH-abb/sdr, LC cdr) VH: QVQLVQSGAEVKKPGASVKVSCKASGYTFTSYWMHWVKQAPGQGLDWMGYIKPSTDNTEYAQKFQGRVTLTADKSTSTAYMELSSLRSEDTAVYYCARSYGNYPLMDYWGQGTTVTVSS VL: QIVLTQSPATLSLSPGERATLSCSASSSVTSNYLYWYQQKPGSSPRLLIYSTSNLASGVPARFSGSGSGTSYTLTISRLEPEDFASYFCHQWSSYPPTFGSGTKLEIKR", "ELISA rMET vs parental": 0.7}
{"binder": "G2vkf (antibody, V domains shown, As G2aka; also called humanized P3D12, HC VH-ven, LC fra) VH: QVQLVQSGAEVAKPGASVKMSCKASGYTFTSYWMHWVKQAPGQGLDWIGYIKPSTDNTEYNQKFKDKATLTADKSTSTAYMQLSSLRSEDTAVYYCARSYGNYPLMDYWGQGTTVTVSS VL: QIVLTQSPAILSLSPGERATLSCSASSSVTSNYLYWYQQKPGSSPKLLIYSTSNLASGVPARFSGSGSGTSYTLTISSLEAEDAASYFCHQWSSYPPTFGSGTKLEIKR", "ELISA rMET vs parental": 1}
